Each recorded value in this set is attributed to the supplement of paper PMC9170038.

- System: MS2 coat protein
- assay.remarks: apparent KD of MS2 coat protein; designed switch direction (-1 OFF switch, 1 ON switch): -1; higher = weaker reporter binding
- details: Eterna round: R95; input ligand: none
Is apparent KD of MS2 coat protein at least 20 nM? Then label 1. If not, label 0.

input.sequence	tested.on	class.assignment
ACCCAACAUGAGGAUCACCCAUGUCAGGAUAUCCAUCAAAAGCACGAAAGGCGAGGAUGGAGAAGGGACAGAGG [ChP 04-04-2015 #2] (puzzle: Exclusion 1)	MS2 coat protein	label 1
CUGAGCAGACGGAGAUCCAACAUGAGGAUCACCCAUGUCUCAAAAGCUUUUUGCUUGUCUUAUUCUCCUCUGUUCUC [Bieda] (puzzle: Sensor v3, turn-off variant 1)	MS2 coat protein	label 0
GAAAAGGUAGGAUAUACGAAAAAAAAGGGUAGAAAAAAAAGACAUGAGGAUCACCCAUGUAGAAGGACCAAAAG [salish99_ex2_r3_061] (puzzle: Exclusion 2)	MS2 coat protein	label 1
ACAAAGGUAGGAUAUCGGACUAUGGACAUGAGGAUCACCCAUGUGCGUCCAGUGUCCAACCGAGAAGGACCCAAAA [Beinge] (puzzle: Exclusion 5)	MS2 coat protein	label 1
UUUAAUUUUUUUUUUUUACAAGCUUUUUGCUCGUCUUAUACAUGAGGAUCACCCAUGUGGAUGGAAGAUAAAUUAUC [JMF 9] (puzzle: Sensor v3, turn-off variant 2)	MS2 coat protein	label 0
